Hello, the source for this data is ChEMBL document CHEMBL3991601, in case you need it.

Molecular target: Eukaryotic translation initiation factor 2-alpha kinase 1 (Homo sapiens, UniProt Q9BQI3); further: in the data inactive means no Kd found up to 30 µM
Sequence (Q9BQI3 whole entry): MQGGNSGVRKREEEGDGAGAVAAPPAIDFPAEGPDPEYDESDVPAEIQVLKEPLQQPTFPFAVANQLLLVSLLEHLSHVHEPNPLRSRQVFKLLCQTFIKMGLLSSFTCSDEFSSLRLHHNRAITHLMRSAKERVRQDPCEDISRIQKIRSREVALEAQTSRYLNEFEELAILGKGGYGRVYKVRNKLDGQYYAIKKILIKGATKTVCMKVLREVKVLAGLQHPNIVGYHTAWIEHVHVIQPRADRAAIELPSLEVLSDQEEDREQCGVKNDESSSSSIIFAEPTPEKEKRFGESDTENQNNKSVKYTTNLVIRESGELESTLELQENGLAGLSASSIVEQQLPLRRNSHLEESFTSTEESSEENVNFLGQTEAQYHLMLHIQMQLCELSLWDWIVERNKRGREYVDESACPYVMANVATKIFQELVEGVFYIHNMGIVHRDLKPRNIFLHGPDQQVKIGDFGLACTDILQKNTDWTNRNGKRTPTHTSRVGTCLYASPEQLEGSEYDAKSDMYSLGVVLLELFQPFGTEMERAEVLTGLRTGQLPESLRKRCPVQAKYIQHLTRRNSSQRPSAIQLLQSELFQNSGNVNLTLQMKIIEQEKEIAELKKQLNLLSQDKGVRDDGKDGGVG
The source made the active and inactive calls.
Respond with a class label; see Y (active), N (inactive)

These solved cases illustrate the format of a correct answer.
| INPUT_SMILES | CAT |
| --- | --- |
| COCCN1CCN(Cc2ccc(-c3n[nH]c4c3C(=O)c3c(NC(=O)NN5CCOCC5)cccc3-4)cc2)CC1 | Y |
| CC1(COc2ccc3c(c2)ncn3-c2ccc3cccc(N4CCC(N)CC4)c3n2)COC1 | N |
| Cn1c(=O)c(F)c(Nc2ccc(I)cc2F)c2c(=O)n(C[C@@H](O)CO)cnc21 | N |

Turning now to a further record.
Could you check what this test reported for CN1CCN(c2nc(C3=C(c4c[nH]c5ccccc45)C(=O)NC3=O)c3ccccc3n2)CC1 ?
N

----------
Lab note: Kd readings collected with Cyclin-G-associated kinase (Homo sapiens, UniProt O14976) for the following molecules.
Sequence (O14976 whole entry): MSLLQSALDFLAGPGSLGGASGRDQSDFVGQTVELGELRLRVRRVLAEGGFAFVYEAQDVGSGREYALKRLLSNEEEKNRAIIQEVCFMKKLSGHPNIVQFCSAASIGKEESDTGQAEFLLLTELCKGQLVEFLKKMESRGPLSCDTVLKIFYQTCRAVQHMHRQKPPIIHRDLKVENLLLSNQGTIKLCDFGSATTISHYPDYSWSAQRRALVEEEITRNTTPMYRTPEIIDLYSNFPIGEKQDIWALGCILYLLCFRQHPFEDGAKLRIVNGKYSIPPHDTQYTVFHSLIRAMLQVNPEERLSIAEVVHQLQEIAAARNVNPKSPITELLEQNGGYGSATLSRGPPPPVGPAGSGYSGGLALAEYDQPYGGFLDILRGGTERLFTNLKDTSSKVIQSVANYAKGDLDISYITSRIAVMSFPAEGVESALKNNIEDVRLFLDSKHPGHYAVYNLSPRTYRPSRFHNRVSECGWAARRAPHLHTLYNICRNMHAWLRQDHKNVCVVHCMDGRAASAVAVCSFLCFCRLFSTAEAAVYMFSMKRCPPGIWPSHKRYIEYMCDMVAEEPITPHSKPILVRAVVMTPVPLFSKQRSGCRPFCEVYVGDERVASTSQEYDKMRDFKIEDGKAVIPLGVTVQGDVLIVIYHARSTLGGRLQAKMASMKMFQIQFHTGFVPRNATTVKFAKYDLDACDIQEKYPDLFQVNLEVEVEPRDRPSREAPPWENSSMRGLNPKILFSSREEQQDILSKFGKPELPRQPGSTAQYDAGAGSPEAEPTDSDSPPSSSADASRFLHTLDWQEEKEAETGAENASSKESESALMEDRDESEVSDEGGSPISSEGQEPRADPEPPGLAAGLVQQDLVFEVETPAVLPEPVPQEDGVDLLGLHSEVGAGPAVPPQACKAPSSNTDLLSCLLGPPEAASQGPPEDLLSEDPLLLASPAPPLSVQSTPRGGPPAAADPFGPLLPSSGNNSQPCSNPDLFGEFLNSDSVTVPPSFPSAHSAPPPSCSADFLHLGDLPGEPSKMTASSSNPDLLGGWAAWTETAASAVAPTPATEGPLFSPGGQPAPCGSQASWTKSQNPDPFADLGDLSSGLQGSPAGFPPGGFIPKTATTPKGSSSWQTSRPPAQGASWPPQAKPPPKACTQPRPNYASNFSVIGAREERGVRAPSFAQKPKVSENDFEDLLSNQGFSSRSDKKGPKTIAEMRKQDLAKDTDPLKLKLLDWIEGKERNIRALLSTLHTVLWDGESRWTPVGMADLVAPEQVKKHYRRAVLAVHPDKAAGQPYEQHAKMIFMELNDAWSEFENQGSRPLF
Active and inactive are the calls of the source.

Worked cases, answers included:
| INPUT_SMILES | Kd |
| --- | --- |
| CNC(=O)c1cc(COc2nnc(Nc3ccc(Cl)cc3)c3ccoc23)ccn1 | > 30 µM (inactive) |
| O=c1[nH]c([C@@H]2CCCN2)nc2c1oc1ccc(Cl)cc12 | > 30 µM (inactive) |

Pending molecule:
So for Cn1c(=O)n(-c2ccc(C(C)(C)C#N)cc2)c2c3cc(-c4cnc5ccccc5c4)ccc3ncc21 , the logged Kd turned out to be > 30 µM (inactive)

----------
Target: Tyrosine-protein kinase ABL2 (Homo sapiens, UniProt P42684); further: in the data inactive means no Kd found up to 30 µM
Sequence (P42684 whole entry): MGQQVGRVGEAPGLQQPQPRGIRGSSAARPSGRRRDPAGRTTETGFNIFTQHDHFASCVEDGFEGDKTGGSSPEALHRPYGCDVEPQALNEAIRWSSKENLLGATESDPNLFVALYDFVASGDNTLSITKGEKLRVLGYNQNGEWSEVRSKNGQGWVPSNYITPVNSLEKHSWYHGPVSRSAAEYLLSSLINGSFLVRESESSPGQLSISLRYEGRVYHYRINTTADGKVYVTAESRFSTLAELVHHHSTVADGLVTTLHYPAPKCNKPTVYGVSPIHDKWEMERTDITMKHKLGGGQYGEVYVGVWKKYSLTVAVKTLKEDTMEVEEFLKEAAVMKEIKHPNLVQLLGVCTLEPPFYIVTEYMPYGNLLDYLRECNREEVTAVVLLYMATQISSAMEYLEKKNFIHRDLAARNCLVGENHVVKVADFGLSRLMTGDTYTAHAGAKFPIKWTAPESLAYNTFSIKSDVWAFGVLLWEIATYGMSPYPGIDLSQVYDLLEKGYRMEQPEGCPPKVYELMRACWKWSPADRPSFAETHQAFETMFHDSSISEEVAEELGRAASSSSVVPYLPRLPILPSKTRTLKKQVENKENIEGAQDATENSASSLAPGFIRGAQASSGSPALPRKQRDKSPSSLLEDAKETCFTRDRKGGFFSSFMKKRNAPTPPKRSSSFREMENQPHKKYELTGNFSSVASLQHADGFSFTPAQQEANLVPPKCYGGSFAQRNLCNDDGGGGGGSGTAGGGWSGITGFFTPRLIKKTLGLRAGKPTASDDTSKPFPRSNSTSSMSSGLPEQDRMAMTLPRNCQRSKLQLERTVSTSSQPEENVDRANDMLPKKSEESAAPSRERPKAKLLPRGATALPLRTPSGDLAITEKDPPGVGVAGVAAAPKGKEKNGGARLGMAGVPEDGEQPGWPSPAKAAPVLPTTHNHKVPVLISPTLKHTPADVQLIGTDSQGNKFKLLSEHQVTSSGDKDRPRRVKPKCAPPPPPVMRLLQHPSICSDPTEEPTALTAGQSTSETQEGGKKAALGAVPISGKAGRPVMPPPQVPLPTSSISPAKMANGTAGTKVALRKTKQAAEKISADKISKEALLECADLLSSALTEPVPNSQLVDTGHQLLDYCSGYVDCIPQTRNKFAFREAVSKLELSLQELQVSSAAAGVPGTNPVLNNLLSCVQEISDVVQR
Calls of active or inactive are those of the source.
Respond with a class label; see 1.0 for active, 0.0 for inactive

| COMPOUND | SYSTEM_NAME | CAT |
| --- | --- | --- |
| C=CCn1c(=O)c2cnc(Nc3ccc(N4CCN(C)CC4)cc3)nc2n1-c1cccc(C(C)(C)O)n1 [ADAVOSERTIB] | Tyrosine-protein kinase ABL2 (Homo sapiens, UniProt P42684) | 0.0 |
| Cc1cc(-c2cc(OC(=O)c3ccccc3)ccc2Cl)cc2nnc(Nc3ccc(OCCN4CCCC4)cc3)nc12 [TG100-801] | Tyrosine-protein kinase ABL2 (Homo sapiens, UniProt P42684) | 1.0 |
| COc1cc2ncnc3c2cc1OCCCCCN(C)Cc1ccc(Br)cc1N3 [JNJ-26483327] | Tyrosine-protein kinase ABL2 (Homo sapiens, UniProt P42684) | 0.0 |
| COc1ccc2c(OCc3nnc4ccc(-c5ccccc5)nn34)ccnc2c1 [AMG-208] | Tyrosine-protein kinase ABL2 (Homo sapiens, UniProt P42684) | 0.0 |

Could you check what this test reported for C[C@@H]1COC(Nc2ccc3ncnc(Nc4ccc(OCc5nccs5)c(Cl)c4)c3c2)=N1 [VARLITINIB] ?
0.0

----------
Target: ATP-dependent RNA helicase DHX30 (Homo sapiens, UniProt Q7L2E3); further: in the data inactive means no Kd found up to 30 µM
Sequence (Q7L2E3 whole entry): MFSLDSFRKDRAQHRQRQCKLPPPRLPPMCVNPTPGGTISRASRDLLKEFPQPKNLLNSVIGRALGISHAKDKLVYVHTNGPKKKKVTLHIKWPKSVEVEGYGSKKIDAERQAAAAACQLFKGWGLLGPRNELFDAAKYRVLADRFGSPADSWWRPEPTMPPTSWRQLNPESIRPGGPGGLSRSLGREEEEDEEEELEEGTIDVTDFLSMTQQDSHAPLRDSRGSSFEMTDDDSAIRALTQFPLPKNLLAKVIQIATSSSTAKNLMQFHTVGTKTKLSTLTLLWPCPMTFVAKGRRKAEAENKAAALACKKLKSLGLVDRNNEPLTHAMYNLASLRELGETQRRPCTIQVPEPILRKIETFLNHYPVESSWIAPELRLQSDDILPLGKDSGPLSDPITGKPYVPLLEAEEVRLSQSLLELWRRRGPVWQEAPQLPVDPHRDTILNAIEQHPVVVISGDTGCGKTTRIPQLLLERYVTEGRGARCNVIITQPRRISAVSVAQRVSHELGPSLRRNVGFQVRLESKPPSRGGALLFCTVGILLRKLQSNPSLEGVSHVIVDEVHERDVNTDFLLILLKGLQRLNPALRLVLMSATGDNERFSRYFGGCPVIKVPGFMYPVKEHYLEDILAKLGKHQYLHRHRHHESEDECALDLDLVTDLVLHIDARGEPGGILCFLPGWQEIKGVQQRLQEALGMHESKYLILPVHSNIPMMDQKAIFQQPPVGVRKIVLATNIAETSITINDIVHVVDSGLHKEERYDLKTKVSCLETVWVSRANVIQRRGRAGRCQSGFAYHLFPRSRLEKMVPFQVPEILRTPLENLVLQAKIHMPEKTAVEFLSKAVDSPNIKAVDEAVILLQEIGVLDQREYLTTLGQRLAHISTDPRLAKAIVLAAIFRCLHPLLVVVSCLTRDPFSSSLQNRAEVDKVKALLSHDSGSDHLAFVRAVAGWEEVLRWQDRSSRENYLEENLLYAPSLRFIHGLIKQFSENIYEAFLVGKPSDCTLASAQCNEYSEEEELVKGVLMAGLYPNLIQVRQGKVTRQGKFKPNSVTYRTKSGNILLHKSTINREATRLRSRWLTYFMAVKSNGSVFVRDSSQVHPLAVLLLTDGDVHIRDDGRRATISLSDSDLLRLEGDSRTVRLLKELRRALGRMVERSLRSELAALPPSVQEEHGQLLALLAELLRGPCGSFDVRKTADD
Activity calls are given as the source filed them.
QUANTITY_MEASURED: Kd

| COMPOUND | SYSTEM_NAME | Kd |
| --- | --- | --- |
| CC(C)(O)CC(=O)NCCn1ccc2ncnc(Nc3ccc(Oc4cccc(C(F)(F)F)c4)c(Cl)c3)c21 | ATP-dependent RNA helicase DHX30 (Homo sapiens, UniProt Q7L2E3) | > 30 µM (inactive) |
| COc1cc2ncnc(Nc3ccc(F)c(Cl)c3)c2cc1NC(=O)/C=C/CN1CCCCC1 [DACOMITINIB ANHYDROUS] | ATP-dependent RNA helicase DHX30 (Homo sapiens, UniProt Q7L2E3) | > 30 µM (inactive) |
| FC(F)(F)c1ccc(CNc2ccc(Cc3c[nH]c4ncc(Cl)cc34)cn2)cn1 | ATP-dependent RNA helicase DHX30 (Homo sapiens, UniProt Q7L2E3) | > 30 µM (inactive) |
| CCOc1ccn(-c2ccc(F)cc2)c(=O)c1C(=O)Nc1ccc(Oc2ccnc(N)c2Cl)c(F)c1 | ATP-dependent RNA helicase DHX30 (Homo sapiens, UniProt Q7L2E3) | > 30 µM (inactive) |
| O=S(=O)(c1cccc2cnccc12)N1CCCNCC1 | ATP-dependent RNA helicase DHX30 (Homo sapiens, UniProt Q7L2E3) | > 30 µM (inactive) |

Hey, ATP-dependent RNA helicase DHX30 (Homo sapiens, UniProt Q7L2E3) data for S=C(NCc1ccc2c(c1)OCO2)N1CCN(c2ncnc3c2oc2ccccc23)CC1 : Kd came out at > 30 µM (inactive)
